Each item that follows carries a reported pKi.
Molecular target: UniProt:P00918
Test: Inhibition of recombinant human carbonic anhydrase 2 incubated for 15 mins prior to testing by phenol red based stopped-flow CO2 hydration assay
pKi: −log10 of the molar value.
reported-endpoint: pKi

[
  {
    "smiles-representation": "COc1ccc(-n2nc(NC(=O)Nc3cccc(S(N)(=O)=O)c3)nc2-c2ccccc2)cc1OC",
    "assayed-target": "UniProt:P00918",
    "reported-endpoint": "pKi",
    "measured-result": 6.55
  },
  {
    "smiles-representation": "NS(=O)(=O)c1ccc(CCNC(=O)Nc2nc(-c3ccccc3)n(-c3ccc(F)cc3)n2)cc1",
    "assayed-target": "UniProt:P00918",
    "reported-endpoint": "pKi",
    "measured-result": 8.47
  },
  {
    "smiles-representation": "COc1ccc(-n2nc(NC(=O)Nc3ccc(S(N)(=O)=O)cc3)nc2-c2ccccc2)cc1OC",
    "assayed-target": "UniProt:P00918",
    "reported-endpoint": "pKi",
    "measured-result": 7.77
  },
  {
    "smiles-representation": "Cc1ccc(NC(=O)Nc2nc(-c3ccccc3)n(-c3cccc(Cl)c3)n2)cc1S(N)(=O)=O",
    "assayed-target": "UniProt:P00918",
    "reported-endpoint": "pKi",
    "measured-result": 7.04
  },
  {
    "smiles-representation": "Cc1ccc(NC(=O)Nc2nc(-c3ccccc3)n(-c3ccc(F)cc3)n2)cc1S(N)(=O)=O",
    "assayed-target": "UniProt:P00918",
    "reported-endpoint": "pKi",
    "measured-result": 6.77
  },
  {
    "smiles-representation": "COc1ccc(-n2nc(NC(=O)Nc3ccc(C)c(S(N)(=O)=O)c3)nc2-c2ccccc2)cc1",
    "assayed-target": "UniProt:P00918",
    "reported-endpoint": "pKi",
    "measured-result": 7.14
  },
  {
    "smiles-representation": "COc1ccc(-n2nc(NC(=O)Nc3cccc(S(N)(=O)=O)c3)nc2-c2ccccc2)cc1",
    "assayed-target": "UniProt:P00918",
    "reported-endpoint": "pKi",
    "measured-result": 7.25
  },
  {
    "smiles-representation": "NS(=O)(=O)c1cccc(NC(=O)Nc2nc(-c3ccccc3)n(-c3cccc(Cl)c3)n2)c1",
    "assayed-target": "UniProt:P00918",
    "reported-endpoint": "pKi",
    "measured-result": 7.00
  },
  {
    "smiles-representation": "COc1ccc(-n2nc(NC(=O)Nc3ccc(C)c(S(N)(=O)=O)c3)nc2-c2ccccc2)cc1OC",
    "assayed-target": "UniProt:P00918",
    "reported-endpoint": "pKi",
    "measured-result": 6.26
  },
  {
    "smiles-representation": "COc1cccc(-n2nc(NC(=O)Nc3ccccc3S(N)(=O)=O)nc2-c2ccccc2)c1",
    "assayed-target": "UniProt:P00918",
    "reported-endpoint": "pKi",
    "measured-result": 6.80
  },
  {
    "smiles-representation": "NS(=O)(=O)c1ccc(CCNC(=O)Nc2nc(-c3ccccc3)n(-c3ccc(Cl)cc3)n2)cc1",
    "assayed-target": "UniProt:P00918",
    "reported-endpoint": "pKi",
    "measured-result": 7.38
  },
  {
    "smiles-representation": "COc1ccc(-n2nc(NC(=O)Nc3ccccc3S(N)(=O)=O)nc2-c2ccccc2)cc1OC",
    "assayed-target": "UniProt:P00918",
    "reported-endpoint": "pKi",
    "measured-result": 6.95
  },
  {
    "smiles-representation": "NS(=O)(=O)c1ccccc1NC(=O)Nc1nc(-c2ccccc2)n(-c2ccc(F)cc2)n1",
    "assayed-target": "UniProt:P00918",
    "reported-endpoint": "pKi",
    "measured-result": 6.42
  },
  {
    "smiles-representation": "COc1cccc(-n2nc(NC(=O)Nc3ccc(C)c(S(N)(=O)=O)c3)nc2-c2ccccc2)c1",
    "assayed-target": "UniProt:P00918",
    "reported-endpoint": "pKi",
    "measured-result": 6.64
  },
  {
    "smiles-representation": "COc1cccc(-n2nc(NC(=O)Nc3ccc(S(N)(=O)=O)cc3)nc2-c2ccccc2)c1",
    "assayed-target": "UniProt:P00918",
    "reported-endpoint": "pKi",
    "measured-result": 7.87
  },
  {
    "smiles-representation": "COc1cccc(-n2nc(NC(=O)NCCc3ccc(S(N)(=O)=O)cc3)nc2-c2ccccc2)c1",
    "assayed-target": "UniProt:P00918",
    "reported-endpoint": "pKi",
    "measured-result": 7.45
  },
  {
    "smiles-representation": "COc1ccc(-n2nc(NC(=O)Nc3ccccc3S(N)(=O)=O)nc2-c2ccccc2)cc1",
    "assayed-target": "UniProt:P00918",
    "reported-endpoint": "pKi",
    "measured-result": 6.80
  },
  {
    "smiles-representation": "COc1ccc(-n2nc(NC(=O)NCCc3ccc(S(N)(=O)=O)cc3)nc2-c2ccccc2)cc1OC",
    "assayed-target": "UniProt:P00918",
    "reported-endpoint": "pKi",
    "measured-result": 7.79
  }
]

The reported numbers originate from ChEMBL document CHEMBL5346980.
